Biological target: T1, P985_AMBPA (Amblyomma parvum, UniProt A0A023FT45 25-132);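 also: biolayer interferometry on an Octet system: chemokines at several doses tested against tick chemokine-binding proteins, association, equilibrium and dissociation curves fitted to derive Kd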
T1 sequence: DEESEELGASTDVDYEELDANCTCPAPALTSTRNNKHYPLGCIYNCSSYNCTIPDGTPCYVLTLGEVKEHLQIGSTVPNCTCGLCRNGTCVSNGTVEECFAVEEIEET
Assay: BLI
pKd: −log10 of the molar value.
Returns one of T or F; T when pKd is >= 8.

Entry CCL5_HUMAN (ligand) SPYSSDTTPCCFAYIARPLPRAHIKEYFYTSGKCSNPAVVFVTRKNRQVCANPEKKWVREYINSLEMS : is its pKd no less than 8?
T

Entry CCL4L1_HUMAN (ligand) APMGSDPPTACCFSYTARKLPRNFVVDYYETSSLCSQPAVVFQTKRGKQVCADPSESWVQEYVYDLELN : is its pKd no less than 8?
F

Entry CCL16_HUMAN (ligand) QPKVPEWVNTPSTCCLKYYEKVLPRRLVVGYRKALNCHLPAIIFVTKRNREVCTNPNDDWVQEYIKDPNLPLLPTRNLSTVKIITAKNGQPQLLNSQ : is its pKd no less than 8?
F

Cited source: patent US20240034757A1
